Data provenance is paper PMC10223552.

Molecular target: hH3R (Homo sapiens, UniProt Q9Y5N1)
Sequence (Q9Y5N1 whole entry): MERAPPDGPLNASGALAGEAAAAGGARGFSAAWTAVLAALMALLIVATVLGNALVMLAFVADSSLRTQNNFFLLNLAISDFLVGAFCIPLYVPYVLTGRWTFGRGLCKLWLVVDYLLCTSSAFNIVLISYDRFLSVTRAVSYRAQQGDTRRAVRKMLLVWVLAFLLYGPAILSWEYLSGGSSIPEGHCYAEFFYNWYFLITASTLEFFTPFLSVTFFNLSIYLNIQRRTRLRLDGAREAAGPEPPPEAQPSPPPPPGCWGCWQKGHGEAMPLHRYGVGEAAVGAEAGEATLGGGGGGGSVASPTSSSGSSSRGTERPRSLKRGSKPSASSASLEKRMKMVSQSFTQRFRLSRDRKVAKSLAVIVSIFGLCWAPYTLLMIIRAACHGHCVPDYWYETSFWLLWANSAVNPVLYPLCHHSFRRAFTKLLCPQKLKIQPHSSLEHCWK
Readout Type: pKd
Give bare numbers, as −log10 of the molar value.

Qu. Name the reported pKd value associated with the compound CNCCc1cnc[nH]1 [[3H]Nα-methylhistamine, reference compound]
Ans. 8.51

---

Kindly supply the reported Ki values for the records listed here.
Biological target: hH3R (Homo sapiens, UniProt Q9Y5N1)
Construct: expressed in transfected cells
Experiment: biochemical
Assay type: binding
Conditions: hH3R Ki

Qu. Name the reported Ki value associated with the compound N=C(NCCCCN1CCCCC1)NCCCc1ccc(Cl)cc1
Ans. < 200 nM

Below: the item to evaluate.
Qu. Name the reported Ki value associated with the compound N=C(NCCCCc1ccc(Cl)cc1)NCCCN1CCCCC1
Ans. < 200 nM

---

Target: eqBuChE (Equus caballus)
Sequence (P81908 whole entry): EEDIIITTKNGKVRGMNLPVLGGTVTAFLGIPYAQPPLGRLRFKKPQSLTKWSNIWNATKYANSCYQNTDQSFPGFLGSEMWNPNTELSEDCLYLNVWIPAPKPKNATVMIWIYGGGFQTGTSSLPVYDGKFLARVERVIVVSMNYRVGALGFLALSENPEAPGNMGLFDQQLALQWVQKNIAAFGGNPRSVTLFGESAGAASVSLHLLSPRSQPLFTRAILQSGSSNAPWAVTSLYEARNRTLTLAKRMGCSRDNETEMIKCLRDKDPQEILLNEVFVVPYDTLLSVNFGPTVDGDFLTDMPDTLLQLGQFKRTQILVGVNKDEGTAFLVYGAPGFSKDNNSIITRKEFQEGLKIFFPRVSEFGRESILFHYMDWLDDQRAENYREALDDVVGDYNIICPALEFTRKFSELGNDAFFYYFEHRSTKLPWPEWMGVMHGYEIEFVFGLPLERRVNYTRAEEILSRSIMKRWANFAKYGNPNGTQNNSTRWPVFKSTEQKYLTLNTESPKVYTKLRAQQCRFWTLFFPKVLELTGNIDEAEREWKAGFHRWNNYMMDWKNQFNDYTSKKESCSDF
Experiment: biochemical
Conditions: read-out: eqBuChE % inh. (10 µM) ± SD
Readout Type: inhibition at 10 µM
Lab note: write values as number then unit, every time.

Solved entries (count: 4):
Qu. Name the reported inhibition at 10 µM value associated with the compound N=C(N)N(CCCCN1CCN(CCCOCCCc2ccccc2)CC1)Cc1ccccc1
Ans. 32.4%

Qu. Name the reported inhibition at 10 µM value associated with the compound Cl.Cl.N=C(NCCCCc1ccc(Cl)cc1)NCCCCN1CCCCC1
Ans. 83.9%

Qu. Name the reported inhibition at 10 µM value associated with the compound N=C(N)N(CCCCN1CCN(CCCCCCCOc2ccc(Cl)cc2)CC1)Cc1ccccc1
Ans. 84.6%

Qu. Name the reported inhibition at 10 µM value associated with the compound N=C(N)N(CCCCN1CCN(CCCCCCCOc2ccccc2)CC1)Cc1ccccc1
Ans. 70.8%

For each listed entry, give its inhibition at 10 µM.
1. N=C(N)N(CCCCN1CCN(CCCCCCCOc2ccc(Cl)cc2)CC1)Cc1ccc(C(F)(F)F)cc1
2. N=C(N)N(CCCCc1ccc(Cl)cc1)CCCN1CCCCC1
3. N=C(NCCCc1ccc(Cl)cc1)NCCCN1CCCCC1
4. N=C(N)N(CCCCN1CCN(CCCOCCCc2ccc(Cl)cc2)CC1)Cc1ccccc1
5. N=C(NCCCCN1CCCCC1)NCCCc1ccc(Cl)cc1
6. N=C(N)N(CCCCN1CCN(CCCOCCCc2ccccc2)CC1)Cc1ccc(C(F)(F)F)cc1
7. N=C(N)N(CCCc1ccc(Cl)cc1)CCCN1CCCCC1

Ans.
71.4%
72.6%
20.3%
76.6%
60.4%
28.3%
54.3%

For each listed entry, give its inhibition at 10 µM.
1. N=C(N)N(CCCCN1CCCCC1)CCCc1ccc(Cl)cc1
2. N=C(N)N(CCCCN1CCN(CCCOCCCc2ccc(Cl)cc2)CC1)Cc1ccc(C(F)(F)F)cc1
3. N=C(NCCCCc1ccc(Cl)cc1)NCCCN1CCCCC1

Ans.
["75.2%", "67.5%", "89.4%"]
